Source listed as patent US9988632B2.

Listed here: items and their measured PINT levels decreased as compared to the control group.
- System: PINT
- Protocol Summary: PINT level (qPCR) after siRNA transfection
- Assay type: cell-based, human
- Condition Label: HDF(neonatal) cells, 25 nM siRNA, 72 hours, vs scramble siRNA
- Description: In detail, the young cells were human dermal fibroblast (HDF) (hereinafter, referred to as ‘HDF cell’ or ‘HDF (neonatal)’) obtained from neonatal foreskin, human dermal fibroblast (HDF) M4 cell (hereinafter, referred to as ‘HDF M4 cell’ or ‘HDF (M4)’) obtained from the foreskin of a child, and human mammary epithelial cell (HMEC) (hereinafter, referred to as ‘HMEC cell’ or ‘HMEC’) obtained from ATCC® PCS-600-010™. […]
Measurement Kind: PINT levels decreased as compared to the control group (%)

Substance	Unit Name	Test Value
siPINT-5: siRNA complementary to PINT gene, nucleotide sequences of SEQ ID NO: 20 and SEQ ID NO: 21 (chain 1 AGCCAGGAAGAGGGACUGGAACCAU; chain 2 AUGGUUCCAGUCCCUCUUCCUGGCU; listed as RNA, chemistry not given here)	%	0
siPINT-3: siRNA complementary to PINT gene, nucleotide sequences of SEQ ID NO: 16 and SEQ ID NO: 17 (chain 1 AUGUAUCAAAUGCCUGGUUCUAUUU; chain 2 AAAUAGAACCAGGCAUUUGAUACAU; listed as RNA, chemistry not given here)	%	67
siPINT-4: siRNA complementary to PINT gene, nucleotide sequences of SEQ ID NO: 18 and SEQ ID NO: 19 (chain 1 AAGUAGGAGCCACGAAAUGUCAUUU; chain 2 AAAUGACAUUUCGUGGCUCCUACUU; listed as RNA, chemistry not given here)	%	50
siPINT-1: siRNA complementary to PINT gene, nucleotide sequences of SEQ ID NO: 12 and SEQ ID NO: 13 (chain 1 AAGAAAUACGCAGAACUGAUUCCUG; chain 2 CAGGAAUCAGUUCUGCGUAUUUCUU; listed as RNA, chemistry not given here)	%	36
siPINT-2: siRNA complementary to PINT gene, nucleotide sequences of SEQ ID NO: 14 and SEQ ID NO: 15 (chain 1 UGGGAUAAUUUGCCAUCUGGAGUUU; chain 2 AAACUCCAGAUGGCAAAUUAUCCCA; listed as RNA, chemistry not given here)	%	0
